Target: SHP2 protein (Homo sapiens)
Sequence (Q06124 1-593): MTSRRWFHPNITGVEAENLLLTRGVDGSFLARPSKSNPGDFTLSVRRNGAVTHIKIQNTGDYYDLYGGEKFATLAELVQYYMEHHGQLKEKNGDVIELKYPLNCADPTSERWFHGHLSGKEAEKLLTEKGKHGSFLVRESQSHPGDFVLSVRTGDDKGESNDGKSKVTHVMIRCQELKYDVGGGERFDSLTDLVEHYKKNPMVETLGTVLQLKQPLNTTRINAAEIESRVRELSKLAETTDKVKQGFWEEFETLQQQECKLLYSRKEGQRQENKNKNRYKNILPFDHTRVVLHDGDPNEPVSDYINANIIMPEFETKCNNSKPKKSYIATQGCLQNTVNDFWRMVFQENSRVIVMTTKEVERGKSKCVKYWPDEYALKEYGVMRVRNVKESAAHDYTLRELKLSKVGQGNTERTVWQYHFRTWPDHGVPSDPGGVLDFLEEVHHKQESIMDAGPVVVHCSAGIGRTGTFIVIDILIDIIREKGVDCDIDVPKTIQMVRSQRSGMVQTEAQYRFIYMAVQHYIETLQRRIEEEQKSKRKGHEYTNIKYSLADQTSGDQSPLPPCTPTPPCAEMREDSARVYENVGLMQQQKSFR
Test: Degradation activity on SHP2 protein in MV-411 cells (Western blot, DC50)
Type: cell-based
Set-up: endogenous in cells
Conditions: MV411 cells, 24 hours, read-out: Degradation activity for differenct cell lines MV411 (DC50)
measurement.kind: DC50

For orientation, consider the following solved cases.
CN(Cc1ccc2c(c1)CN(C1CCC(=O)NC1=O)C2=O)C(=O)c1cnc(N2CCC3(CN(CCCCCCC(=O)Nc4cccc(Sc5cnc(N6CCC(C)(N)CC6)cn5)c4)C3)C2)c(Cl)c1 (stereo not drawn) [Compound 182] ... < 100 nM
Cc1ncsc1-c1ccc([C@H](C)NC(=O)[C@@H]2C[C@@H](O)CN2C(=O)[C@@H](NC(=O)c2cnc(N3CCN(CCCC(=O)Nc4cccc(Sc5cnc(N6CCC(C)(N)CC6)cn5)c4)CC3)nc2)C(C)(C)C)cc1 [Compound 82] ... < 100 nM
Cc1ncsc1-c1ccc([C@H](C)NC(=O)[C@@H]2C[C@@H](O)CN2C(=O)[C@@H](NC(=O)COCCOCCOCCOCC(=O)Nc2cccc(Sc3cnc(N4CCC(C)(N)CC4)cn3)c2)C(C)(C)C)cc1 [Compound 12] ... < 100 nM
CC1(N)CCN(c2cnc(Sc3cccc(NC(=O)CCCCCCCN4CC5(CCN(Cc6ccc(COc7cccc8c7CN(C7CCC(=O)NC7=O)C8=O)cc6)C5)C4)c3)cn2)CC1 (stereo not drawn) [Compound 68] ... < 100 nM
CC1(N)CCN(c2cnc(Sc3cccc(NC(=O)CCCCCCCCN4C5CCC4CN(c4ccc(CN6CCN(c7ccc8c(c7)C(=O)N(C7CCC(=O)NC7=O)C8=O)CC6)nn4)C5)c3)cn2)CC1 (stereo not drawn) [Compound 149] ... < 100 nM

Kindly review the next compound as well.
// query Quote DC50 reported for C[C@@H]1OCC2(CCN(c3cnc(Sc4cccc(NC(=O)CCCCCCCN5CC6(CCN(Cc7ccc(COc8cccc9c8CN(C8CCC(=O)NC8=O)C9=O)cc7)C6)C5)c4)cn3)CC2)[C@@H]1N (stereo partly drawn) [Compound 113] please.
// result > 1000 nM
